- MEASURED ON: HDAC10 (Homo sapiens)
- TEST METHOD NOTES: BRET assay for HDAC10
- Type: cell-based
pEC50: −log10 of the molar value.
OBSERVATION TYPE: pEC50

1: O=C(NO)C1CCN(CCNCc2ccc(Br)cc2)CC1
2: O=C(NO)C1CCN(CCNCc2ccccc2)CC1
# input Higher pEC50: 1 or 2 ? Could you answer with the label of the item you picked?
# output 1

====

- MEASURED ON: drHDAC10 (Danio rerio)
- Sequence (F1QCV2 2-675 limits assumed): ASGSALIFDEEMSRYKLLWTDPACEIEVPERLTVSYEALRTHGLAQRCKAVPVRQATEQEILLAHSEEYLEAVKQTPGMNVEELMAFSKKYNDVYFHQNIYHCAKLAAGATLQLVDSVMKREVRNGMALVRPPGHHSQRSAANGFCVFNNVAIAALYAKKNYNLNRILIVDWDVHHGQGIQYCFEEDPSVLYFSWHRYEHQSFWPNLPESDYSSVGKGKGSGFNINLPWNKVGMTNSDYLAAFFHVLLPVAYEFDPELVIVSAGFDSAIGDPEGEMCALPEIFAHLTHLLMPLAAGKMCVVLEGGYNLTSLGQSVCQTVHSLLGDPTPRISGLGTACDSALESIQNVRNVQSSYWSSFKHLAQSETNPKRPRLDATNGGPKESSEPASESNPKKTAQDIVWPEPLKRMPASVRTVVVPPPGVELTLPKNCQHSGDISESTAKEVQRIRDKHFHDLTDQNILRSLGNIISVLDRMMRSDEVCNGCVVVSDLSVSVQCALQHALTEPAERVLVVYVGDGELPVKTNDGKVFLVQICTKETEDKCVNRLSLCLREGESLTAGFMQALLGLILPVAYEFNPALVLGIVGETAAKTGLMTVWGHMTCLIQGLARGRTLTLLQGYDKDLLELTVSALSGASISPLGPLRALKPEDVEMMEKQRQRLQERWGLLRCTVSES
- TEST METHOD NOTES: NDA assay drHDAC10
- COND: read-out: NDA assay drHDAC10 % inhibition
OBSERVATION TYPE: inhibition at 1 µM (%)

I: O=C(CCCCCCC(=O)Nc1ccccc1)NO
II: CCCCOc1ccc(CC(=O)NO)cc1
# input Consider entries I and II . Which has the numerically lower inhibition at 1 µM? Could you answer with the label of the item you picked?
# output I
(I: 43%, II: 64%)

====

- MEASURED ON: HDAC10 (Homo sapiens, UniProt Q969S8)
- Sequence (Q969S8 1-669): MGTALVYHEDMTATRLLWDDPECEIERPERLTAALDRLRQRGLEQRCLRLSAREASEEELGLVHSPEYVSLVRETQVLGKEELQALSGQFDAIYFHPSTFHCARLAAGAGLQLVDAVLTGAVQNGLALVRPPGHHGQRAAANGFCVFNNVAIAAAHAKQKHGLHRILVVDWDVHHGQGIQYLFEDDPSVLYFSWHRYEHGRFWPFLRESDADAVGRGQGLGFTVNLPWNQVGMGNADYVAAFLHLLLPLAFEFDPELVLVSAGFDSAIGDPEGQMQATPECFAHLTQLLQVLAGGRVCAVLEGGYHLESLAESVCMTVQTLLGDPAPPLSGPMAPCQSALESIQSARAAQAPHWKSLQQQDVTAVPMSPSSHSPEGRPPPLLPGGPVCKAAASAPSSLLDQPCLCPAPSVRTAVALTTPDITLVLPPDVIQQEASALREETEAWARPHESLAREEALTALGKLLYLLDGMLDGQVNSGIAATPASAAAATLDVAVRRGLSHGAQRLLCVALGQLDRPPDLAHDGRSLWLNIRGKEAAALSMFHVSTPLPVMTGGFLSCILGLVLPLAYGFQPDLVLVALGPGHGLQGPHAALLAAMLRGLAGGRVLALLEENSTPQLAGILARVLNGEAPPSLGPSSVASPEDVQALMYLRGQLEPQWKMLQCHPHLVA
OBSERVATION TYPE: IC50 (nM)

1: O=C(NO)C1CCN(CCNCc2ccccc2)CC1 [48 a]
2: O=C(NO)C1CCN(CCNCc2ccc(Br)cc2)CC1 [48 b]
# input Higher IC50: 1 or 2 ? Could you answer with the label of the item you picked?
# output 1

====

// IC50 lookup, one value per entry
- MEASURED ON: hHDAC8 (Homo sapiens)
- Sequence (Q9BY41 1-377): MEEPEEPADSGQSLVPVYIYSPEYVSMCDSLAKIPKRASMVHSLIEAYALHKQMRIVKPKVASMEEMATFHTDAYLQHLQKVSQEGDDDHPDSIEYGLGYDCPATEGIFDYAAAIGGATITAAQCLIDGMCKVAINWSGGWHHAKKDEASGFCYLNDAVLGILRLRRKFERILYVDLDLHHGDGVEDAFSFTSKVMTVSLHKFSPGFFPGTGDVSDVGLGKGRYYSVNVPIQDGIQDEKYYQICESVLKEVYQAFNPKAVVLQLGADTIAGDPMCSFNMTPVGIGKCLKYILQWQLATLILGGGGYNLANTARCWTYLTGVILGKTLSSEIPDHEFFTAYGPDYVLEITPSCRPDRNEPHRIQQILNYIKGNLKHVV
- TEST METHOD NOTES: biochemical
- COND: inhibition of HDAC8

>  <STRUCTURE>
O=C(NO)C1CCN(CCNCc2ccccc2)CC1

>  <REPORTED MEASUREMENT>
~1000 nM

$$$$

Below: the item to evaluate.
Entry O=C(NO)C1CCN(CCNCc2ccc(Br)cc2)CC1 — recorded IC50 = ~1000 nM
